Tested on: A549
ASSAY DETAILS: Cytotoxicity against human A549 cells assessed as inhibition of cell growth incubated for 48 hrs by MTT assay
Type: functional, cell-based
CONDITION DETAILS: A549, 48 h
OBSERVABLE: IC50 (µM)
One number for each entry, in µM.

Known IC50 results, listed for orientation:
CN(C)CCN1C(=O)c2cccc3cc(NC(=O)CCCNC(=O)C(Cl)Cl)cc(c23)C1=O = 4.7
CN(C)CCN1C(=O)c2cccc3cc(NC(=O)CNC(=O)C(Cl)Cl)cc(c23)C1=O = 4.7
CCOc1cc(OCC)cc(-c2cc(C(F)(F)F)nn2-c2ccc3c4c(cccc24)C(=O)N(CCN(C)C)C3=O)c1 = 5.06

Answer for every listed entry: what is its IC50? The entries follow.
1. CN(C)CCN1C(=O)c2cccc3cc(NC(=O)CCN)cc(c23)C1=O
2. COc1cc(-c2cc(C(F)(F)F)nn2-c2ccc3c4c(cccc24)C(=O)N(CCN(C)C)C3=O)cc(OC)c1OC
3. CCOc1ccc(-c2cc(C(F)(F)F)nn2-c2ccc3c4c(cccc24)C(=O)N(CCN(C)C)C3=O)cc1
4. COc1ccccc1-c1cc(C(F)(F)F)nn1-c1ccc2c3c(cccc13)C(=O)N(CCN(C)C)C2=O
5. CCCOc1cccc(-c2cc(C(F)(F)F)nn2-c2ccc3c4c(cccc24)C(=O)N(CCN(C)C)C3=O)c1
6. CN(C)CCN1C(=O)c2cccc3cc(NC(=O)CCCCCN)cc(c23)C1=O
7. COc1cc(OC)cc(-c2cc(C(F)(F)F)nn2-c2ccc3c4c(cccc24)C(=O)N(CCN(C)C)C3=O)c1

1: 4.7; 2: 5.06; 3: 5.06; 4: 5.06; 5: 5.06; 6: 4.7; 7: 5.06

Answer for every listed entry: what is its IC50? The entries follow.
1. CCCOc1cc(OCCC)cc(-c2cc(C(F)(F)F)nn2-c2ccc3c4c(cccc24)C(=O)N(CCN(C)C)C3=O)c1
2. CCCCOc1cccc(-c2cc(C(F)(F)F)nn2-c2ccc3c4c(cccc24)C(=O)N(CCN(C)C)C3=O)c1
3. CCCOc1ccccc1-c1cc(C(F)(F)F)nn1-c1ccc2c3c(cccc13)C(=O)N(CCN(C)C)C2=O
4. CN(C)CCN1C(=O)c2cccc3cc(NC(=O)CN)cc(c23)C1=O
5. CCOc1cccc(-c2cc(C(F)(F)F)nn2-c2ccc3c4c(cccc24)C(=O)N(CCN(C)C)C3=O)c1
6. CN(C)CCN1C(=O)c2cccc3cc(NC(=O)CCCCCNC(=O)C(Cl)Cl)cc(c23)C1=O

1. 5.06
2. 5.06
3. 5.06
4. 4.7
5. 5.06
6. 4.7
